Provenance of the data: paper PMC10945501

# Tested on: CHO-hPD-L1 cells
# method_description: MTT cell viability assay
# Format: cell-based, Chinese hamster
# assay_context: Cricetulus griseus, 24 h, read-out: EC50 (cell viability, MTT)
pEC50: −log10 of the molar value.

[
  {
    "molecule": "COc1cc(OCc2cccc(-c3ccccc3)c2C)cc(OC)c1CN1CCCC[C@H]1C(=O)O [PD-1/PD-L1 Inhibitor 1, reference compound]",
    "pEC50": 4.28
  }
]

====

# assayed_system: human PD-L1 (Homo sapiens, UniProt Q9NZQ7)
# Construct: purchased Cisbio Bioassays SAS, Codolet, France 64PD1PEG
# Sequence (Q9NZQ7 19-238 limits assumed): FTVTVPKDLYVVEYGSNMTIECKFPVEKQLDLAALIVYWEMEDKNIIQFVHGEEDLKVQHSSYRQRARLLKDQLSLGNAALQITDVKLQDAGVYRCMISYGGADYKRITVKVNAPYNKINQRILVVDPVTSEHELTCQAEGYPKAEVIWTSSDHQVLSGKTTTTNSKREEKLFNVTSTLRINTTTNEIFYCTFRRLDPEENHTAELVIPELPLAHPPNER
# method_description: HTRF PD-1/PD-L1 binding assay (cell-free)
# assay_context: cell-free competitive PD-1/PD-L1 HTRF; mean ± SD; read-out: IC50 (hPD-L1 binding affinity, HTRF)
pIC50: −log10 of the molar value.
Listed here are molecules together with their documented pIC50.

[
  {
    "molecule": "Cc1c(COc2cc(OCc3cccc(C#N)c3)c(CN[C@H](CO)C(=O)O)cc2Cl)cccc1-c1ccccc1",
    "assayed_system": "human PD-L1 (Homo sapiens, UniProt Q9NZQ7)",
    "lt_gt_eq": "=",
    "pIC50": 8.17
  },
  {
    "molecule": "Cc1c(COc2cc(OCc3ccnc(C#N)c3)c(CNCCF)cc2Cl)cccc1-c1ccc2c(c1)OCCO2",
    "assayed_system": "human PD-L1 (Homo sapiens, UniProt Q9NZQ7)",
    "lt_gt_eq": "=",
    "pIC50": 7.92
  },
  {
    "molecule": "Cc1c(COc2cc(OCc3cocn3)c(CN3CCCC[C@H]3C(=O)O)cc2Cl)cccc1-c1ccc2c(c1)OCCO2",
    "assayed_system": "human PD-L1 (Homo sapiens, UniProt Q9NZQ7)",
    "lt_gt_eq": "=",
    "pIC50": 7.80
  },
  {
    "molecule": "Cc1c(COc2cc(OCc3cccc(C#N)c3)c(C=O)cc2Cl)cccc1-c1ccc2c(c1)OCCO2",
    "assayed_system": "human PD-L1 (Homo sapiens, UniProt Q9NZQ7)",
    "lt_gt_eq": "<",
    "pIC50": 5.30
  },
  {
    "molecule": "Cc1c(COc2cc(OCc3ccnc(C#N)c3)c(C=O)cc2Cl)cccc1-n1cccc1",
    "assayed_system": "human PD-L1 (Homo sapiens, UniProt Q9NZQ7)",
    "lt_gt_eq": "<",
    "pIC50": 5.30
  },
  {
    "molecule": "Cc1c(COc2cc(OCc3ccnc(C#N)c3)c(CN[C@H](CO)C(=O)O)cc2Cl)cccc1-c1ccc2c(c1)OCCO2",
    "assayed_system": "human PD-L1 (Homo sapiens, UniProt Q9NZQ7)",
    "lt_gt_eq": "=",
    "pIC50": 8.21
  },
  {
    "molecule": "Cc1c(COc2cc(OCc3ccnc(C#N)c3)c(CN3CCOC3CF)cc2Cl)cccc1-c1ccc2c(c1)OCCO2 (stereo not shown)",
    "assayed_system": "human PD-L1 (Homo sapiens, UniProt Q9NZQ7)",
    "lt_gt_eq": "=",
    "pIC50": 7.92
  }
]
